Molecular target: T1, His-tagged HM1.24 antigen, residues N49-A163 of the extracellular domain (UniProt Q10589 49-163)
T1 chain: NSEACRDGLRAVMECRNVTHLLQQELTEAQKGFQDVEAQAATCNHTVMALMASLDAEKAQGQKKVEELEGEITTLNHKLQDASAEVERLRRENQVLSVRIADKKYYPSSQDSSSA
Assay: Biacore
Listed here are binders together with their documented koff.
Your answer should be a plain number; it is taken to be in s⁻¹.

Binder	koff [s⁻¹]
HM1.24_H2.4 heavy chain variant with HM1.24_L4 light chain (antibody, V domains shown) VH: EVQLVESGGGLVKPGGSLRLSCAASGYTFTPYWMQWVRQAPGKGLEWMGSIFPGDADTRYSQSFQGQVTISADKSISTAYMELSSLRSEDTAVYYCARGLRRGGYYFDYWGQGTLVTVSS VL: DIVMTQSPLSLPVTLGQPASISCKASQDVNTAVAWYLQKPGKSPKLLIYSASNRYTGVPDRITGSGSGTDFTLKISRVEAEDVGVYYCQQHYSTPFTFGSGTKLEIKR	0.0029

## Task State the recorded koff for this entry: HM1.24_H1.4_L2_Hybrid_S239D/I332E (antibody, V domains shown) VH: QVQLVQSGAEVKKPGASVKVSCKASGYTFTPYWMQWVRQAPGQGLEWMGSIFPGDADTRYSQSFQGQVTISADKSISTAYMELSRLRSDDTAVYYCARGLRRGGYYFDYWGQGTLVTVSS VL: DIVMTQSPSSLSASVGDRVTITCQASQDVNTAVAWYQQKPDQSPKLLIYSASNRYTGVPDRITGSGSGTDFTLTISSLQAEDVAVYYCQQHYSTPFTFGSGTKLEIKR
## Result 0.00274

## Task Recorded koff for HM1.24_H1.3 heavy chain variant with HM1.24_L4 light chain (antibody, V domains shown) VH: QVQLVQSGAEVKKPGASVKVSCKASGYTFTPYWMQWVRQAPGQGLEWMGSIFPGDSDTRYSQSFQGQVTISADKSISTAYMELSRLRSDDTAVYYCARGLRRGGYYFDYWGQGTLVTVSS VL: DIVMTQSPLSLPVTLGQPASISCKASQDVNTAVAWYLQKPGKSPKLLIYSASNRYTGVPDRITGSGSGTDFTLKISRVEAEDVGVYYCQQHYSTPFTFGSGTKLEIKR , please?
## Result 0.00229
